Target system: Recombinant BTK kinase (Homo sapiens)
Construct: purchased Invitrogen
Sequence (Q06187 whole entry): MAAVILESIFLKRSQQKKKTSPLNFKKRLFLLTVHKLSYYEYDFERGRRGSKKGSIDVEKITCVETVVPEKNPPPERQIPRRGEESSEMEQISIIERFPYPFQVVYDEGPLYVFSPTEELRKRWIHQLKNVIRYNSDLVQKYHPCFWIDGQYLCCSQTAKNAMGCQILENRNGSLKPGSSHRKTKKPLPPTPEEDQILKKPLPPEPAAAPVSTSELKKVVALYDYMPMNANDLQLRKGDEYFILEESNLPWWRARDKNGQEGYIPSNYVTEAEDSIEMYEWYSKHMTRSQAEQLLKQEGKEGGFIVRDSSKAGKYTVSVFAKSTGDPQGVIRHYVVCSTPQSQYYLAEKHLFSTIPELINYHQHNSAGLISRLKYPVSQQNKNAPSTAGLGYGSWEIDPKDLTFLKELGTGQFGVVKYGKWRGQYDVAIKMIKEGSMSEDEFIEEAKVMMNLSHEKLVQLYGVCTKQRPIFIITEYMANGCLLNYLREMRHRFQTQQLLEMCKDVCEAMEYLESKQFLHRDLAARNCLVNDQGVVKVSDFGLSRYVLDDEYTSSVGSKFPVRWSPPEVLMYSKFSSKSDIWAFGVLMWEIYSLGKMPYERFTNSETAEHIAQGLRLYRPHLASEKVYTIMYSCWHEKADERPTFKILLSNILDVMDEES
Procedure summary: BTK binding affinity (TR-FRET)
Assay setup: Table 4 numeric values
Procedure: BTK binding affinity of each compound tested was determined using a time-resolved fluorescence resonance energy transfer (TR-FRET) methodology. 2.5 nM Recombinant BTK kinase, varying concentrations of inhibitor, 2 nM LanthaScreen™ Eu anti-His Antibody and 15 nM Kinase Tracer 236 was incubated in 1× LanthaScreen™ Kinase Buffer A for five hours. […] The TR-FRET signal was read on a plate reader with an excitation wavelength of 340 nm and detection wavelengths of 615 and 665 nm. […]
Observed property: IC50 (nM)
Response body: numeric value in nM, unit text excluded.

Qu. # get_value(readout= IC50, system= Recombinant BTK kinase (Homo sapiens)) for C=CC(=O)N1CCC[C@@H](n2nc(-c3ccc(CNC(=O)c4ccc(C)cc4OC)cc3)c3c(N)ncnc32)C1
Ans. 0.7

###

Target system: Recombinant EGFR (Homo sapiens, UniProt P00533)
Sequence (P00533 25-1210): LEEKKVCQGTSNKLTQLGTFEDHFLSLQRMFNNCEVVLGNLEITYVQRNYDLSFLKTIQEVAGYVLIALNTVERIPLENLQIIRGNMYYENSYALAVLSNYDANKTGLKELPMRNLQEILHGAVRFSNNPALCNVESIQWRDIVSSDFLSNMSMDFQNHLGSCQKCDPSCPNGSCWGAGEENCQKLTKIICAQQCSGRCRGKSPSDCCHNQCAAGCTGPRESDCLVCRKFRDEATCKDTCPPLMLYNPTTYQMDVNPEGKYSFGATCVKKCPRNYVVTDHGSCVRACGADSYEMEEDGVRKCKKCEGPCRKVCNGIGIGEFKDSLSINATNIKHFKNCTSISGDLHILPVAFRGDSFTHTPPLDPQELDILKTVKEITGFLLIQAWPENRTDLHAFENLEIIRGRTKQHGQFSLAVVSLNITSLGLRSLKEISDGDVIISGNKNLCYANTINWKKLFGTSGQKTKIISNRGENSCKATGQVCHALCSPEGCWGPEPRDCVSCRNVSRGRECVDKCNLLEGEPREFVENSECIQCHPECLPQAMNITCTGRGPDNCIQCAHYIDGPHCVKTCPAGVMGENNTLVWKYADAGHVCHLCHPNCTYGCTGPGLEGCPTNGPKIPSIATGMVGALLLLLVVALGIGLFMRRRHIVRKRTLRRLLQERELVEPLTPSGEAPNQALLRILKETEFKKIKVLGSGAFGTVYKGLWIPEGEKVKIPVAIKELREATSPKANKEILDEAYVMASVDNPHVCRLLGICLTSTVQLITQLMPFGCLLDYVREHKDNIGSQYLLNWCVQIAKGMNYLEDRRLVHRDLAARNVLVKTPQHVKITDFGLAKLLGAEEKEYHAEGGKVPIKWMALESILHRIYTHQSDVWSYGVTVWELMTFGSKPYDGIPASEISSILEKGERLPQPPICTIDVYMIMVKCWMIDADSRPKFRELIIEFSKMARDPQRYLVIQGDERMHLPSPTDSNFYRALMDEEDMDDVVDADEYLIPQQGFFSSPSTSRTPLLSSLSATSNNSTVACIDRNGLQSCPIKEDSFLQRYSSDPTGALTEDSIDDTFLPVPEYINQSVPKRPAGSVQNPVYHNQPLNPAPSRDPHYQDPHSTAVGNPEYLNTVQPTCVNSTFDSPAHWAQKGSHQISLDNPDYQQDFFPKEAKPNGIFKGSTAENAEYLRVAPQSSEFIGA
Procedure summary: EGFR binding affinity (TR-FRET)
Assay setup: 2.5 nM recombinant EGFR, five hours incubation, Table 3 categories
Observed property: IC50

Qu. # get_value(readout='IC50', item= C=CC(=O)N1CCC[C@@H](n2nc(-c3ccc(CNC(=O)c4ccc(C)cc4OC)cc3)c3c(N)ncnc32)C1 )
Ans. 25 to 80 nM

Qu. // returns reported IC50 for input C=CC(=O)N1CCC[C@@H](n2nc(-c3ccc(CNC(=O)c4ccc(C(F)(F)F)cc4F)cc3)c3c(N)ncnc32)C1
Ans. < 25 nM
